Recorded inhibition by entry
Target entity: Large T antigen (Simian virus 40)
Assay text: SV40 large T antigen inhibitors, biochemical (AID 1903)
Measurement parameters: SV40 large T antigen ATPase/helicase inhibition assay; at 20 µM; active compounds read high
About 1,200 (0.39%) of roughly 310,000 compounds were called active. Only a sample is shown. Results with a measured potency or affinity are listed apart.
Numeric answer only, unit % assumed.

- Compound: "COc1ccc(NC(=O)c2ccc(N3CCOCC3)nc2)cc1"
  Target entity: "Large T antigen (Simian virus 40)"
  Measurement unit: "%"
  inhibition: 6.11
- Compound: "Nc1ccc2c(c1)C(=O)c1ccccc1C2=O"
  Target entity: "Large T antigen (Simian virus 40)"
  Measurement unit: "%"
  inhibition: 7.9
- Compound: "Cc1nnsc1C(=O)Nc1ccc(Cl)cc1"
  Target entity: "Large T antigen (Simian virus 40)"
  Measurement unit: "%"
  inhibition: 3.36
- Compound: "Cc1ccc(Cl)cc1NC(=O)C(NS(=O)(=O)c1cccs1)c1ccccc1 (stereo unspecified)"
  Target entity: "Large T antigen (Simian virus 40)"
  Measurement unit: "%"
  inhibition: 3.94
- Compound: "Cc1ccc(C(=O)Nc2ccc(N3CCOCC3)nc2)cc1"
  Target entity: "Large T antigen (Simian virus 40)"
  Measurement unit: "%"
  inhibition: 1.46

Inquiry: Requested read-out: inhibition. Entry: O=C(c1cc(-c2ccc(Cl)cc2)on1)N1CCOCC1
Reply text: 7.19
